Values compiled from patent US20100233172A1.

SUBJECT OF TEST: Rab geranylgeranyl transferase (GGTII) (Homo sapiens, UniProt P53611+Q92696)
Sequence (Q92696 whole entry): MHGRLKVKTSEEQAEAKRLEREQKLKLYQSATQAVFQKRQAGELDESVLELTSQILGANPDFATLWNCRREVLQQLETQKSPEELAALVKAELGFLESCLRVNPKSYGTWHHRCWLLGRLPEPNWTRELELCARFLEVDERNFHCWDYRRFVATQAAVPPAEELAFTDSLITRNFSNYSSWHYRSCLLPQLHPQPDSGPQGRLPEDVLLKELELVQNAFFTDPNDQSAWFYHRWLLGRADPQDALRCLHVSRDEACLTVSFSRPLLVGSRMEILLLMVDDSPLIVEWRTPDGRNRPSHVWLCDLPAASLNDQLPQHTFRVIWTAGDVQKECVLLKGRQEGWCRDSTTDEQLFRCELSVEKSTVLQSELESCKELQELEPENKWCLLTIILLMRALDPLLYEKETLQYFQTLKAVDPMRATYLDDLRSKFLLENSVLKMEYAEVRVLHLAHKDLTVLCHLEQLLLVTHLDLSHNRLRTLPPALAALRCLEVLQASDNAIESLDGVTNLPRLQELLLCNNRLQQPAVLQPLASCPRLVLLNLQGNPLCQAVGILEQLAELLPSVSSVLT
Sequence (P53611 whole entry): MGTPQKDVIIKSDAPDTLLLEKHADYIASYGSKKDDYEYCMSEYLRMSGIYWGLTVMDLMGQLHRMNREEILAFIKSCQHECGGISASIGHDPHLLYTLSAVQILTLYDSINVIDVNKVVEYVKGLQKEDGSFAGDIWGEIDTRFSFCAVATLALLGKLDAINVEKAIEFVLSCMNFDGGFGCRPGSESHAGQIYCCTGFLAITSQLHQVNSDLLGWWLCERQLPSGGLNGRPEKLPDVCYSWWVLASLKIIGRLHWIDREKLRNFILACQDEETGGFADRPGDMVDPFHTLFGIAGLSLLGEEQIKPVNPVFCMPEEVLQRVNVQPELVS
ASSAY INFO: Prenyltransferase enzyme assay, RabGGT
Listing: IC50 of selected compounds

MOL	IC50 (µM)
Cn1cncc1CN1C[C@@H](Cc2ccccc2)N(S(=O)(=O)c2cccs2)Cc2cc(C#N)ccc21	0.012
N#Cc1ccc2c(c1)CN(S(=O)(=O)c1ccccc1)[C@H](Cc1ccccc1)CN2Cc1cnc[nH]1	0.041
Cn1cncc1CN1C[C@@H](Cc2ccccc2)N(S(=O)(=O)c2ccccc2)Cc2cc(C#N)ccc21	0.008

* * *

SUBJECT OF TEST: FT (Homo sapiens, UniProt P49354+P49356)
ASSAY INFO: Prenyltransferase enzyme assay, FT
pIC50: −log10 of the molar value.

COMPOUND	SUBJECT OF TEST	pIC50
N#Cc1ccc2c(c1)CN(S(=O)(=O)c1ccccc1)[C@H](Cc1ccccc1)CN2Cc1cnc[nH]1 [BMS-212347]	FT (Homo sapiens, UniProt P49354+P49356)	8.62
Cn1cncc1CN1C[C@@H](Cc2ccccc2)N(S(=O)(=O)c2ccccc2)Cc2cc(C#N)ccc21 [BMS-223999]	FT (Homo sapiens, UniProt P49354+P49356)	8.96

* * *

SUBJECT OF TEST: geranylgeranyl transferase I (GGTI) (Homo sapiens, UniProt P49354+P53609)
ASSAY INFO: Prenyltransferase enzyme assay, GGTI
Overview of recorded IC50 for various compounds

MOL	SUBJECT OF TEST	IC50 (nM)
N#Cc1ccc2c(c1)CN(S(=O)(=O)c1ccccc1)[C@H](Cc1ccccc1)CN2Cc1cnc[nH]1	geranylgeranyl transferase I (GGTI) (Homo sapiens, UniProt P49354+P53609)	1200
Cn1cncc1CN1C[C@@H](Cc2ccccc2)N(S(=O)(=O)c2ccccc2)Cc2cc(C#N)ccc21	geranylgeranyl transferase I (GGTI) (Homo sapiens, UniProt P49354+P53609)	530
Cn1cncc1CN1C[C@@H](Cc2ccccc2)N(S(=O)(=O)c2cccs2)Cc2cc(C#N)ccc21	geranylgeranyl transferase I (GGTI) (Homo sapiens, UniProt P49354+P53609)	900
